assayDetails: Spectral properties of the dyes compared with commercially available dyes
Assay type: physicochemical
testContext: reactive ester form of the dye
quantityName: ε

Task: Would you mind telling me what ε value was observed for COCCN1/C(=C/C=C/C=C/C2=[N+](CCCCCC(=O)Oc3c(F)c(F)cc(F)c3F)c3ccc(S(=O)(=O)[O-])cc3C2(C)CCCS(=O)(=O)O)C(C)(CCCS(=O)(=O)O)c2cc(S(=O)(=O)O)ccc21 (stereo not shown) [650 Compound 1-TFP] ?
Result: 250,000 M−1cm−1

Task: What do we get for COCCN1/C(=C/C=C/C2=[N+](CCCCCC(=O)ON3C(=O)CCC3=O)c3ccc(S(=O)(=O)[O-])cc3C2(C)CCCS(=O)(=O)O)C(C)(CCCS(=O)(=O)O)c2cc(S(=O)(=O)O)ccc21 (stereo not shown) [550 Compound 1-NHS] ?
Result: 142,000 M−1cm−1

Task: What do we get for COCCN1/C(=C/C=C/C=C/C=C/C2=[N+](CCCCCC(=O)ON3C(=O)CCC3=O)c3ccc(S(=O)(=O)[O-])cc3C2(C)CCCS(=O)(=O)O)C(C)(CCCS(=O)(=O)O)c2cc(S(=O)(=O)O)ccc21 (single isomer, unassigned) [755 Compound 1 (isomer 1)-NHS] ?
Result: 220,000 M−1cm−1

Task: What do we get for COCCN1/C(=C/C=C/C=C/C=C/C2=[N+](CCCCCC(=O)ON3C(=O)CCC3=O)c3ccc(S(=O)(=O)[O-])cc3C2(C)CCCS(=O)(=O)O)C(C)(CCCS(=O)(=O)O)c2cc(S(=O)(=O)O)ccc21 (single isomer, unassigned) [755 Compound 1 (isomer 2)-NHS] ?
Result: 220,000 M−1cm−1

---

assayDetails: Storage stability at 50° C. under argon
Assay type: physicochemical
testContext: unit size 1 mg; 50° C. for seven days; purity based on ester activity
quantityName: Purity at day 1 (%)
The reply should be a number in %, with the unit left off.

Task: Would you mind telling me what Purity at day 1 value was observed for COCCN1/C(=C/C=C/C2=[N+](CCCCCC(=O)Oc3c(F)c(F)cc(F)c3F)c3ccc(S(=O)(=O)[O-])cc3C2(C)CCCS(=O)(=O)O)C(C)(CCCS(=O)(=O)O)c2cc(S(=O)(=O)O)ccc21 (single isomer, unassigned) [550 Compound 1 (isomer 1)-TFP] ?
Result: 97

Task: What do we get for COCCN1/C(=C/C=C/C2=[N+](CCCCCC(=O)NCCN3C(=O)C=CC3=O)c3ccc(S(=O)(=O)[O-])cc3C2(C)CCCS(=O)(=O)O)C(C)(CCCS(=O)(=O)O)c2cc(S(=O)(=O)O)ccc21 (single isomer, unassigned) [550 Compound 1(isomer 2)-maleimide] ?
Result: 98

Task: What do we get for COCCN1/C(=C/C=C/C2=[N+](CCCCCC(=O)NCCN3C(=O)C=CC3=O)c3ccc(S(=O)(=O)[O-])cc3C2(C)CCCS(=O)(=O)O)C(C)(CCCS(=O)(=O)O)c2cc(S(=O)(=O)O)ccc21 (single isomer, unassigned) [550 Compound 1(isomer 1)-maleimide] ?
Result: 99

Task: What do we get for COCCN1/C(=C/C=C/C2=[N+](CCCCCC(=O)ON3C(=O)CCC3=O)c3ccc(S(=O)(=O)[O-])cc3C2(C)CCCS(=O)(=O)O)C(C)(CCCS(=O)(=O)O)c2cc(S(=O)(=O)O)ccc21 (single isomer, unassigned) [550 Compound 1 (isomer 1)-NHS] ?
Result: 96
